Entries annotated with measured polymerase ribozyme fitness (log ratio)
B1: TPR t1 (parent)
chain: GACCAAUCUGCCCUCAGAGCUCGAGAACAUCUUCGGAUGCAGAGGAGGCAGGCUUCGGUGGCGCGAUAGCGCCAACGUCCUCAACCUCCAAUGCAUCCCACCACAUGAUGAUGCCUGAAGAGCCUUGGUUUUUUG

# Variants of: B1
# methodSummary: polymerase ribozyme fitness, log enrichment relative to wild type (log ratio); higher = more active; in vitro selection for triplet polymerase activity
assayReadout: polymerase ribozyme fitness (log ratio)

In [3]: df
Out[3]:
                       variantdesignation                             assayreadout  numericvalue
 0               U9C C31G U92A G93C C114A  polymerase ribozyme fitness (log ratio)         -5.25
 1                              G44A G45C  polymerase ribozyme fitness (log ratio)         -3.88
 2  C11G A50C C72A U92G C114A G122C U131C  polymerase ribozyme fitness (log ratio)         -3.27
 3                              G52C C79G  polymerase ribozyme fitness (log ratio)        -0.316
 4                              G45A A50C  polymerase ribozyme fitness (log ratio)         -1.09
 5                            U109C C114U  polymerase ribozyme fitness (log ratio)          -4.7
 6                   U21A C53G C64U U106C  polymerase ribozyme fitness (log ratio)        -0.936
 7                       G10A C114G G135A  polymerase ribozyme fitness (log ratio)         -3.42
 8                            C104U U116C  polymerase ribozyme fitness (log ratio)        -0.608
 9                    C15G A66G G69C C89U  polymerase ribozyme fitness (log ratio)         -5.99
10                             G60A C114A  polymerase ribozyme fitness (log ratio)         -1.45
11                             G42C G110C  polymerase ribozyme fitness (log ratio)         -6.03
12                   G48C G93A C99A G113C  polymerase ribozyme fitness (log ratio)         -7.38
13                              G63U A90U  polymerase ribozyme fitness (log ratio)         -3.53
14                 A6G C8G U30C A41G G60U  polymerase ribozyme fitness (log ratio)         -3.67
15                        C79G C89U G117A  polymerase ribozyme fitness (log ratio)         -4.75
16                              C8A U112C  polymerase ribozyme fitness (log ratio)           1.3
17            G69U C86U U109A C115G U126A  polymerase ribozyme fitness (log ratio)         -7.39
18         C11G C20A A26U C85U A90U A121C  polymerase ribozyme fitness (log ratio)         -4.44
19                               A6G C12U  polymerase ribozyme fitness (log ratio)        -0.282
20                            C115A G120U  polymerase ribozyme fitness (log ratio)       -0.0245
